Biological target: T1, β-catenin (UniProt P35222 134-665, limits assumed, biotinylated in the SPR and plate assays)
T1 construct: also called beta catenin; biotinylated β-catenin
T1 sequence (looked up): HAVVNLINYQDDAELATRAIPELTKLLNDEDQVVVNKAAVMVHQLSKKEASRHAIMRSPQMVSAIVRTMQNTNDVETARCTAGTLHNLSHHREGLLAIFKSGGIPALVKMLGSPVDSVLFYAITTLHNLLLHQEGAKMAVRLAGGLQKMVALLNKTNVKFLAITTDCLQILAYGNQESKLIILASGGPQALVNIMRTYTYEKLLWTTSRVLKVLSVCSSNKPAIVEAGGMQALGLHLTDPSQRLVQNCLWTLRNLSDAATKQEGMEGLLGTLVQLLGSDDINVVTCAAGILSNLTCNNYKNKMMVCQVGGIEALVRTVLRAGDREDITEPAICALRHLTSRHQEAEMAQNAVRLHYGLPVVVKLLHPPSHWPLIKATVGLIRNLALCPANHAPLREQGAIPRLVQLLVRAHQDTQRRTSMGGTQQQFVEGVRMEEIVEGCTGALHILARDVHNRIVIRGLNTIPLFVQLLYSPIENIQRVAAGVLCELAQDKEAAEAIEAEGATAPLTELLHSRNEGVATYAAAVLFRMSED
Assay: competitive FP
Bridges are numbered along the chain shown (N, C = ends). Where no end group is shown, it is not given here. [ ]: non-standard residue; d: D form. αMeF = C[C@](N)(Cc1ccccc1)C(=O)O; NMeA = CN[C@@H](C)C(=O)O
Here, each record is paired with measured Kd data.

See these solved cases before continuing.
{"columns": ["binder", "measured_attribute", "test_value"],
 "data": [
  ["W[NMeA]QSILDEHVQKVWG-NH2 (lactam 8-12; not fully specified (N-terminus); printed as H17C8C(O)NH-W-NmeA-QSILDE*HVQK*VWG-NH2) [SEQ ID NO: 438]", "Kd", "≤ 400 nM"],
  ["H-MWILIC[αMeF]WG-OH [SEQ ID NO: 121]", "Kd", "≤ 400 nM"]
]}

For the next question, use this binder.
Given the binder H-MSRMWFLISFWMG-OH [SEQ ID NO: 14] , what is its reported Kd? > 30000 nM
